Where do the numbers come from? From patent US20230416942A1.

Below is a list of entries, each paired with its recorded EC50 value.
# SYSTEM NAME: T1, PROCR (human, UniProt Q9UNN8 18-210)
# T1 construct: Recombinant human protein in ELISA and BLI
# T1 sequence (looked up): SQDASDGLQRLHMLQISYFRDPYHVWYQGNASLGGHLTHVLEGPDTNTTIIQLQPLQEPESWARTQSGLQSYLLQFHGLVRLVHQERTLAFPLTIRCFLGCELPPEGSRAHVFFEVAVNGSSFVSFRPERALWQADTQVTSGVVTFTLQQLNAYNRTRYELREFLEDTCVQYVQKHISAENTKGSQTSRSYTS
# EXPERIMENT SUMMARY: ELISA, plate-coated recombinant human protein, nanobody-Fc
The answer is to be given in pM; state only the numeric part.

INSERT INTO results (binder, reading_unit, measured_number) VALUES
  ('PROCR_Nb88 (Fc fusion, Nanobody expressed and tested as Fc fusion (human IgG1); not shown: human IgG1 Fc (vector pCER243)) QVQLQESGGGLVQAGGSLRLSCAASGTIFKLGYMGWYRQAPGKEREFVATITTGATTYYADSVKGRFTISRDNAKNTVYLQMNSLKPEDTAVYYCAADTYGPWAYSYWGQGTQVTVSS', 'pM', 287);

Recorded EC50 for PROCR_Nb85 (Fc fusion, Nanobody expressed and tested as Fc fusion (human IgG1); not shown: human IgG1 Fc (vector pCER243)) QVQLQESGGGLVQAGGSLRLSCAASGNISVLVYMGWYRQAPGKERELVAAITTGTSTYYADSVKGRFTISRDNAKNTVYLQMNSLKPEDTAVYYCAADYYGPWYHQYWGQGTQVTVSS , please?
352
